Tested on: BMP signal in MDA-231-D-BREFluc/Rluc cells
experimentalProtocol: BMP signal inhibitory effect (AlphaScreen SureFire SMAD1 p-Ser463/465, BMP-6 stimulation)
Type: cell-based
testSettings: BMP-6 stimulated MDA-231-D-BREFluc/Rluc cells, phospho-SMAD1 AlphaScreen; read-out: IC50
measurementType: IC50 (µM)

Reference set (10 entries):
compound	IC50 [µM]
COCCn1cc(-c2ccnc(Nc3ccc(N4CCN(CC5CCCN5C)CC4)cc3)n2)c(-c2cccnc2)n1 (stereo not shown)	0.0267
CC(C)(C)n1cc(-c2ccnc(Nc3ccc(N4CCNCC4)cc3)n2)c(-c2cccnc2)n1	0.0117
CCn1cc(-c2ccnc(Nc3ccc(-n4ccnc4)cc3)n2)c(-c2cccnc2)n1	0.0145
CCn1cc(-c2ccnc(Nc3cnn(C4CCN(C5COC5)CC4)c3)n2)c(-c2cccnc2)n1	0.032
CCn1cc(-c2ccnc(Nc3ccc(-c4cnn(CCOC)c4)cc3)n2)c(-c2cccnc2)n1	0.0246
CCn1cc(-c2ccnc(Nc3ccc4c(c3)CCN(CC(O)COC)C4)n2)c(-c2cccnc2)n1 (stereo not shown)	0.0057
O=C(c1ccc(Nc2nccc(-c3cn(Cc4ccccc4)nc3-c3cccnc3)n2)cc1)N1CCNCC1	0.0224
c1ccc(Cn2cc(-c3ccnc(Nc4ccc(N5CCNCC5)cc4)n3)c(-c3cccnc3)n2)nc1	0.0319
CCn1cc(-c2ccnc(Nc3ccc4c(c3)CCN(C3COC3)C4)n2)c(-c2cccnc2)n1	0.0148
CCn1cc(-c2ccnc(Nc3ccc(N4CCN(CCOCC(F)F)CC4)cc3)n2)c(-c2cccnc2)n1	0.0183

[a] CCn1cc(-c2ccnc(Nc3ccc4c(c3)CN(C3COC3)C4)n2)c(-c2cccnc2)n1
[b] COCCN1Cc2ccc(Nc3nccc(-c4cn(CCOC)nc4-c4cccnc4)n3)cc2C1
[c] CCn1cc(-c2ccnc(Nc3cccc(OCCN(C)C)c3)n2)c(-c2cccnc2)n1
[d] CC(=O)N1CCN(C(=O)c2ccc(Nc3nccc(-c4cn(CCc5ccccc5)nc4-c4cccnc4)n3)cc2)CC1
[e] CCn1cc(-c2ccnc(Nc3ccc4c(n3)CCN(C)C4)n2)c(-c2cccnc2)n1
QUERY: Hey, quick one: sort these by IC50, largest value first please. Arrange the labels as the request states and list them.
RESULT: e, d, a, b, c

[P] CCn1cc(-c2ccnc(Nc3ccc(-c4cn[nH]c4)cc3)n2)c(-c2cccnc2)n1
[Q] CCn1cc(-c2ccnc(Nc3cccc(N4CCN(C)CC4)c3)n2)c(-c2cccnc2)n1
[R] CCn1cc(-c2ccnc(Nc3ccc(OC4CN(CCOC)C4)cc3)n2)c(-c2cccnc2)n1
QUERY: Hey, quick one: sort these by IC50, largest value first please. Arrange the labels as the request states and list them.
RESULT: P, Q, R

[a] CC(C)(O)Cn1cc(-c2ccnc(Nc3ccc(C4CCN(C5COC5)CC4)cc3)n2)c(-c2cccnc2)n1
[b] FC(F)(F)OCCn1cc(-c2ccnc(Nc3ccc(N4CCNCC4)cc3)n2)c(-c2cccnc2)n1
QUERY: I need your help: which of the pair a , b has higher IC50? Output the label that corresponds to your choice.
RESULT: a
